details: in ethanol, 310.6 K
reported_metric: solubility (mole fraction)

Entry `C[N+](C)(C)CCOC(=O)CCCC(=O)O.[Cl-]` : reported solubility (mole fraction) = ? 0.008

---

settings: in ethanol, 300.2 K
reported_metric: solubility (mole fraction)
Answer using only a numeral; do not append any unit.

Value lookup for solubility (mole fraction); key = `C[N+](C)(C)CCOC(=O)CCCC(=O)O.[Cl-]` 0.006

---

settings: in ethanol, 333.2 K
reported_metric: solubility (mole fraction)
The response must contain the number and no unit.

What does the data say about its solubility (mole fraction)? Entry: `C[N+](C)(C)CCOC(=O)CCCC(=O)O.[Cl-]` 0.033
